tested on: T. cruzi intracellular amastigotes (Tulahuen lacZ strain); assay: Antitrypanosomal assay, intracellular amastigotes in LLC-MK2 cells, CPRG readout; type: cell-based, Trypanosoma cruzi; conditions: CC50 LLC-MK2 / IC50 amastigotes
Endpoint: SI, selectivity index: CC50 of LLC-MK2 cells/IC50 of intracellular amastigotes

## Input Value lookup for SI, selectivity index: CC50 of LLC-MK2 cells/IC50 of intracellular amastigotes; key = O=[N+]([O-])c1nccn1Cc1cc(-c2ccc(Sc3ccccc3)cc2)no1
## Output >4.9

## Input Same thing, different compound: Cc1ccc(Oc2ccc(-c3cc(Cn4ccnc4[N+](=O)[O-])on3)cc2F)cc1
## Output >13.5

## Input Same thing, different compound: O=[N+]([O-])c1nccn1Cc1cc(-c2ccc(Oc3ccccc3)c(F)c2)no1
## Output >31.4

## Input Same thing, different compound: O=[N+]([O-])c1nccn1Cc1cc(-c2ccc(Oc3ccc(F)cc3)c(F)c2)no1
## Output >70.4

## Input Same thing, different compound: O=[N+]([O-])c1nccn1Cc1cc(-c2ccc(Oc3ccc(F)cc3)cc2)no1
## Output >199.4

###

assay: Cytotoxicity assay (MTT); type: cell-based; settings: rhesus monkey, LLC-MK2 cells, read-out: LLC-MK2 CC50 (μM ± SD)
Endpoint: CC50 at 72 h

## Input Value lookup for CC50 at 72 h; key = O=[N+]([O-])c1nccn1Cc1cc(-c2ccc(Oc3ccc(Cl)cc3)c(F)c2)no1
## Output > 100 µM

## Input Same thing, different compound: COc1ccc(Oc2ccc(-c3cc(Cn4ccnc4[N+](=O)[O-])on3)cc2F)cc1
## Output > 100 µM

## Input Same thing, different compound: Cc1ccc(Oc2ccc(-c3cc(Cn4ccnc4[N+](=O)[O-])on3)cc2)cc1
## Output > 100 µM

FYI, the data here is from paper PMC12658631.
